experimental_system: OTUD4 (UniProt Q01804)
Sequence (Q01804 whole entry, the tested form may be a part): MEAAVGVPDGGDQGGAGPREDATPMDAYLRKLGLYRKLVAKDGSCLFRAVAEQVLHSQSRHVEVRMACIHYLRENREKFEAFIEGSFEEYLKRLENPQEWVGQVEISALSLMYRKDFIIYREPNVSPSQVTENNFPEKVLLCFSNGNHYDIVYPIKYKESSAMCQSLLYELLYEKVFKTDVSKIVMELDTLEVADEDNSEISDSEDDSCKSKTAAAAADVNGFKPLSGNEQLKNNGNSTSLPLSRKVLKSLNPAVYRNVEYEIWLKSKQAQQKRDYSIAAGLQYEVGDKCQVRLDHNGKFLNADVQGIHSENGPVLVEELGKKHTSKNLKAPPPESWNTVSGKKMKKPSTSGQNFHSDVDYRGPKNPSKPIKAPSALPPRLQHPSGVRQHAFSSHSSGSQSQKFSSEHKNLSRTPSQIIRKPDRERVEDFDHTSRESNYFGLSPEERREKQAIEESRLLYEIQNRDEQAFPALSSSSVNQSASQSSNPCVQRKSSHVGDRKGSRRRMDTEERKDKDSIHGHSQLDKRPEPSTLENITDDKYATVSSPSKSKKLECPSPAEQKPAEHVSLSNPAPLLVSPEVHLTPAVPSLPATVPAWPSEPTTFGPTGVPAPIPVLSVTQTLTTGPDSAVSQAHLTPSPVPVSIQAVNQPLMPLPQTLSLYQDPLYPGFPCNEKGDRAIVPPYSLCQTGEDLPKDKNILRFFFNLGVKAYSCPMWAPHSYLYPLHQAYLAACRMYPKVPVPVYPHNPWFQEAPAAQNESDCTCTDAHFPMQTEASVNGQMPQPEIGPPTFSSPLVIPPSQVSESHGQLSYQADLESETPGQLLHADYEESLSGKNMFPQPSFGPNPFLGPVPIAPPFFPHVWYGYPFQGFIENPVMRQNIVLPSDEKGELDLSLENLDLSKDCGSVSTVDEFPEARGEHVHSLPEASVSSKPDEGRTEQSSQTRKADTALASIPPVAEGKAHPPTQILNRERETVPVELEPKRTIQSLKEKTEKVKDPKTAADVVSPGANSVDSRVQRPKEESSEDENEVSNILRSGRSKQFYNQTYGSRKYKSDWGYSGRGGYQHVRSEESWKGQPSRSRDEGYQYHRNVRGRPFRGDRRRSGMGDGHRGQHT
method_description: log2 ratio of Biotin-Ahx-Ub-VS probe labelling (fragment/DMSO); higher = less target engagement (more negative = stronger competition), active = hit call of the paper (q ≤ 0.05, log2 ratio ≤ -1)
particulars: compound concentration: 200 uM; treatment time: 3 h
Respond using exactly one of the listed classes: active, inactive

O=C(CCl)Nc1nnc(CC(F)(F)F)o1
inactive
COc1cc(Cl)c(C)cc1NC(=O)CCl
inactive
Cc1n[nH]c(=O)c2c(NC(=O)CCl)oc(C)c12
inactive
Cc1cc(C2CCCN2C(=O)CCl)nn1C.Cl (stereo unspecified)
inactive

Could you please tell me the result logged for CNC(=O)C1CCN(C(=O)CCl)CC1 in this assay?
inactive

Call for entry N#Cc1ccccc1N1CCN(C(=O)CCl)CC1 :
inactive

// return assay outcome for Cc1ccc(C)c(Oc2ccc(CNC(=O)CCl)cn2)c1.Cl
inactive

Dear all, I need the recorded test outcome for CS(=O)(=O)N1CCCN(C(=O)CCl)CC1 , thank you.
inactive

Could you check what this test reported for O=C(CCl)Nc1ccc2c(c1)OC(F)(F)O2 ?
inactive

Outcome? COc1ccc(CN(C)C(=O)CCl)cc1
inactive

Which outcome did this test record for the molecule CC1CN(c2ccc(NC(=O)CCl)cc2)CC(C)O1 (stereo unspecified) ?
inactive

For this molecule, state the assay outcome: O=C(CCl)NCc1ccc(Cl)cc1
inactive

Per the records of this test, what outcome belongs to O=C(CCl)Nc1cccc(C(=O)N2CCSCC2)c1 ?
inactive

In this assay, the call recorded for O=C(CCl)Nc1cccc(NC(=O)c2ccccc2)c1 was what?
inactive
